# Tested on: COLO 205 colon
# assay comment: NCI tumour cell line growth inhibition, 48 h
Kindly state TGI for each of the entries shown.
One number for each entry, in µM.

Check out these entries, answers already filled in.
O=C(CCc1ccco1)NC1CCN(CC2(c3ccc(Cl)cc3)CCC2)CC1 = 31.8
Fc1c[c-]c(-c2ccccn2)c(F)c1.[CH3-].[Pt+2].c1ccc([PH+](c2ccccc2)c2ccccn2)cc1 = 5.72
N=C(N)c1ccc(-c2ccc(-c3cncc4ccccc34)s2)cc1F = 3.94

Please find the next compound below.
Reported TGI ( C[C@H](C(=O)N[C@@H](Cc1ccc(-c2ccccc2)cc1)C(=O)NC1CC(C)(C)N(C)C(C)(C)C1)c1ccc(-c2ccccc2)c(F)c1 ) = 2.87
